# testedSystem: Acetylcholinesterase (Homo sapiens)
# assayName: Acetylcholinesterase (AChE) small molecule antagonists: colormetric cell-based qHTS assay (AID 1347395); note: % is set by controls: 0 for no effect and ±100 for the full control effect; nearly all actives have a fitted effect of over 30% in size
# details: SH-SY5Y cells AChE activity, colorimetric (Ellman); series mostly up to 115 µM
Records with an inconclusive call do not appear. Active and inactive are the calls of the source. Calls come from the whole dose curve.
readout: activity, negative = inhibition

# annotated cases, reported activity, negative = inhibition shown
1. Cc1cc(O)c2c(c1)C(=O)c1cc(O)cc(O)c1C2=O; inactive
2. O=C(O)Cc1cccc(-c2cc(CCCCCCc3ccc(O[C@H]4O[C@H](CO)[C@@H](O)[C@H](O)[C@@H]4O)c(-c4cccc(CC(=O)O)c4)c3)ccc2O[C@H]2O[C@H](CO)[C@@H](O)[C@H](O)[C@@H]2O)c1; 1.5% [at 0.435 µM] (inactive)
3. COc1cc(C=O)ccc1OC(=O)C(C)C; inactive
4. O=C(NCN1CCOCC1)c1cnccn1; inactive

[Q] With Acetylcholinesterase (Homo sapiens) as the test system, provide measured activity, negative = inhibition for this molecule: `CC(=O)C(=O)O`
[A] inactive

[Q] Check Acetylcholinesterase (Homo sapiens) data and give activity, negative = inhibition for `NCCCCCCN` .
[A] inactive

[Q] Find the measured activity, negative = inhibition of CC(=O)OC1CC(C)OC(C)O1 (configuration not stated) with Acetylcholinesterase (Homo sapiens) as test system.
[A] inactive

---

# testedSystem: Nuclear receptor subfamily 1 group I member 3 (Homo sapiens)
# assayName: qHTS assay to identify small molecule antagonists of the constitutive androstane receptor (CAR) signaling pathway (AID 1224838);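 note: HepG2 cells stably expressing hCAR with CYP2B6 luciferase reporter stimulated by CITCO; % is set by controls: 0 for no effect and ±100 for the full control effect; nearly all actives have a fitted effect of over 40% in size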
# details: HepG2-CYP2B6-hCAR luciferase, CITCO-stimulated, 24 h; series mostly up to 92.4 µM
Records with an inconclusive call do not appear. Calls of active or inactive are those of the source. The call rests on the fitted dose curve; in most records, active means well fitted inhibition curve with a large enough effect in the repeat runs; inconclusive means weak or mixed curves, or effect the other way; inactive means no such curve, though single readings can be large or run the other way.
readout: outcome

1. CNC(=O)Oc1cc(C)c(SC)c(C)c1; inactive
2. N#Cc1cc([N+](=O)[O-])ccc1N; inactive
3. Cc1cc(C(C)(C)c2ccc(O)c(C)c2)ccc1O; inactive

---

# assayName: qHTS assay to test for compound auto fluorescence at 535 nm (green) in HepG2 cell free culture (AID 720686); note: % is set by controls: 0 for no effect and ±100 for the full control effect
# details: Cell-free medium, green autofluorescence 485/535 nm; series mostly up to 46 µM
Calls of active or inactive are those of the source. The call rests on the fitted dose curve; in most records, active means well fitted curve in the direction sought with a large enough effect in the repeat runs; inconclusive means weak or mixed curves; inactive means flat fitted curve, though single readings scatter.
readout: outcome

Completed entries (count: 4):
1) C=C[C@H]1CN2CC[C@H]1C[C@@H]2[C@@H](O)c1ccnc2ccccc12; inactive
2) Cc1cc(C)cc(C(=O)OC2C[C@H]3CC[C@@H](C2)N3C)c1 (stereo not given in full); inactive
3) C[C@]12CC[C@H](O)C[C@H]1CC[C@@H]1[C@@H]2CC[C@]2(C)[C@@H](c3ccc(=O)oc3)C[C@H]3O[C@]132; inactive
4) CCC1(c2ccccc2)C(=O)NC(=O)N(C(=O)c2ccccc2)C1=O (stereo not given); inactive

[Q] Look up outcome of `CN1C(=O)CC(=O)N(c2ccccc2)c2cc(Cl)ccc21` and report it.
[A] inactive

---

# testedSystem: Estrogen receptor (Homo sapiens) (UniProt P03372)
# Sequence (P03372 whole entry, looked up): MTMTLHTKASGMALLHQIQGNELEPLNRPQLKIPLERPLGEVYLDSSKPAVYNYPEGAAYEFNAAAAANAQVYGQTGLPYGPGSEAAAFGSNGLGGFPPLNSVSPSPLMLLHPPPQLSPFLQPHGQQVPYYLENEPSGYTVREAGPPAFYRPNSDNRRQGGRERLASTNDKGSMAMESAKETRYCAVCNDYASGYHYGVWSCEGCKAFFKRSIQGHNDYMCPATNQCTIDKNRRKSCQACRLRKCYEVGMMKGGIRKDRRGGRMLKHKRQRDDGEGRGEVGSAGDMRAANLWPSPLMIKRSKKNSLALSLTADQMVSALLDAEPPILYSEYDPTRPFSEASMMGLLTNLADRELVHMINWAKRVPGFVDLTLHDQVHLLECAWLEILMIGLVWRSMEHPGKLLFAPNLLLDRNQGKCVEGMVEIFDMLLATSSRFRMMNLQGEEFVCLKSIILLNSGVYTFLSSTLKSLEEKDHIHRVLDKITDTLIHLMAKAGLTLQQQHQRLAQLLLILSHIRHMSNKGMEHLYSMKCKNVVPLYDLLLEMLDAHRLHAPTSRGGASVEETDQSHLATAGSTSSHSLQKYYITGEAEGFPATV
# assayName: qHTS assay to identify small molecule antagonists of the estrogen receptor alpha (ER-alpha) signaling pathway using the BG1 cell line in the presence of 0.1 nM 17-beta-estradiol (AID 1259244); note: nearly all actives have a fitted effect of over 50% in size
# details: VM7Luc4E2 (BG1) ERE-luciferase, antagonist mode, 0.1 nM E2, 22 h; series mostly up to 92.4 µM
Inconclusive results are not listed. The source made the active and inactive calls. Calls come from the whole dose curve; as a rule, active = well fitted inhibition curve with a large enough effect in the repeat runs; inconclusive = weak or mixed curves; inactive = no such curve, though single readings can be large or run the other way.
API: response.call in active, inactive

[Q] State the result this test recorded for `O=S(=O)(C(Cl)(Cl)Cl)C(Cl)(Cl)Cl` .
[A] active

[Q] Could you kindly confirm the outcome this assay logged for `Cc1cc(C)c(C(=O)P(=O)(c2ccccc2)c2ccccc2)c(C)c1` ?
[A] inactive

[Q] Test call, this compound: `COc1cc(OC)c(OC)cc1C=O`
[A] active

[Q] Please let me know the test result on file for `CCC1(c2cnc[nH]2)Cc2ccccc2C1` .
[A] inactive

[Q] For this compound, state the assay outcome: `ClC(Cl)=C(c1ccc(Cl)cc1)c1ccccc1Cl`
[A] inactive

[Q] Kindly provide the recorded test outcome for the following compound: CC1COC(Cn2cncn2)(c2ccc(Oc3ccc(Cl)cc3)cc2Cl)O1 (configuration not stated)
[A] active

[Q] How was `CCOC(=O)C(O)(c1ccc(Cl)cc1)c1ccc(Cl)cc1` classified in this test?
[A] active

[Q] So what was the verdict on `O=C(c1ccccc1)C(Cl)Cl` in this test?
[A] inactive

[Q] Record lookup: outcome of this test for `CCN(CC)C(=O)Cl` ?
[A] inactive

[Q] Lab log entry: `CC(c1ccccc1)(c1ccc(O)cc1)c1ccc(O)cc1` — outcome as called in the assay?
[A] inactive

[Q] Write down the call the test reported for this compound. Item: `N#Cc1cc([N+](=O)[O-])ccc1N`
[A] inactive

[Q] Could you kindly confirm the outcome this assay logged for `O=C1C(I)=CC(=C(c2cc(I)c(O)c(I)c2)c2ccccc2C(=O)O)C=C1I` ?
[A] inactive
